Test protocol: self-splicing fitness, log relative to wild type (ln ratio); higher = more splicing; Tetrahymena group I intron in knt gene, E. coli kanamycin selection, DiMSum; sequences stand for … in CUCUCU…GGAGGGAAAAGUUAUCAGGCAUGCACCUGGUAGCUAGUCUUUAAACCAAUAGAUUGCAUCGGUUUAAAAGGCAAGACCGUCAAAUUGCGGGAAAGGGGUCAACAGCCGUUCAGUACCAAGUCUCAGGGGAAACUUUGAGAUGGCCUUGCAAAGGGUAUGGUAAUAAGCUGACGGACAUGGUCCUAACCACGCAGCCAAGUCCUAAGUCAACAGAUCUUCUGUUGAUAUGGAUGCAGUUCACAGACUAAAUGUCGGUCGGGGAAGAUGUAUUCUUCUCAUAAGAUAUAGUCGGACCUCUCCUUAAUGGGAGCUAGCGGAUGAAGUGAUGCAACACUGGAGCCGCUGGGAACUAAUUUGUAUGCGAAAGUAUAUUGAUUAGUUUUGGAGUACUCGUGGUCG;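 note: selection with 25 µg/mL kanamycin versus none on LB agar overnight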
Run conditions: 37 °C
Please mark true (1) if the recorded self-splicing fitness (ln) is equal to or greater than -1, and false (0) if it falls below.

Macromolecule sequence | Category
GUUGAGCAAUAUUACGCAGU | false (0)
AUAAAGCAAUAUUACGGACG | true (1)
CGUGAGCAAUAUUACGUUGU | false (0)
AUAGAGCAAUAUUACGGUAC | false (0)
UCGAAGCAAUAUUACGGGCU | false (0)
GUGGAGCAAUAUUACGGUUU | false (0)
GCUAAGCAAUAUUACGACGC | true (1)
GAGGAGCAAUAUUACGGCGC | true (1)
CAUUAGCAAUAUUACGAAGG | true (1)
AUCUAGCAAUAUUACGGUGG | false (0)
AAAUAGCAAUAUUACGCCGU | true (1)
UGUCAGCAAUAUUACGUUUA | true (1)
AUUCAGCAAUAUUACGAGAA | false (0)
CAGGAGCAAUAUUACGGCCU | false (0)
AAUUAGCAAUAUUACGUAGC | false (0)
AUGCAGCAAUAUUACGAGAA | false (0)
CCACAGCAAUAUUACGCGUC | false (0)
UGCUAGCAAUAUUACGACGA | true (1)
UGGAAGCAAUAUUACGCAGC | false (0)
AAUAAGCAAUAUUACGCUGU | false (0)

----------
Test protocol: self-splicing fitness, log relative to wild type (ln ratio); higher = more splicing; Tetrahymena group I intron in knt gene, E. coli kanamycin selection, DiMSum; sequences stand for … in CUCUCU…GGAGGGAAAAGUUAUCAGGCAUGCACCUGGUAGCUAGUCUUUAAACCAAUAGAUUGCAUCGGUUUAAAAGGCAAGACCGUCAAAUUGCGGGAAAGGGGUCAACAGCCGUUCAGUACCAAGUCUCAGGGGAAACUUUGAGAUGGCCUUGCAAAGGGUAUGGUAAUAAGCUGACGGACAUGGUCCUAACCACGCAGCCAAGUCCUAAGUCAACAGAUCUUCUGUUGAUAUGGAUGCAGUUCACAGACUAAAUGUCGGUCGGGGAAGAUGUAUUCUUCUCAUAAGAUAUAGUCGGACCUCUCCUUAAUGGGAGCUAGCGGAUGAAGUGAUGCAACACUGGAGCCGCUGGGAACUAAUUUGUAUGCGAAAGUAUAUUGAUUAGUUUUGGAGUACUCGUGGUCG
Run conditions: 30 °C
// reported self-splicing fitness (ln) for each item listed

Macromolecule sequence | self-splicing fitness (ln)
CUUCAGCAAUAUUACGGUAA | -1.67
UUAGAGCAAUAUUACGCAGC | -3.08
GCGUAGCAAUAUUACGCCGG | -2.21
GUUAAGCAAUAUUACGCGCU | -2
UAGCAGCAAUAUUACGCCAG | -1.46
AUUUAGCAAUAUUACGGCGC | -0.408
CUGGAGCAAUAUUACGAAAU | -3.11
GUAAAGCAAUAUUACGUAUC | -1.1
AGUCAGCAAUAUUACGAGCA | -0.935
GGAUAGCAAUAUUACGUGAU | -2.44
UUUCAGCAAUAUUACGACGU | -1.71
UGGAAGCAAUAUUACGUCGG | -0.128
CCAAAGCAAUAUUACGAGGA | -3.54

----------
Test protocol: self-splicing fitness, log relative to wild type (ln ratio); higher = more splicing; Tetrahymena group I intron in knt gene, E. coli kanamycin selection, DiMSum; sequences stand for … in CUCUCU…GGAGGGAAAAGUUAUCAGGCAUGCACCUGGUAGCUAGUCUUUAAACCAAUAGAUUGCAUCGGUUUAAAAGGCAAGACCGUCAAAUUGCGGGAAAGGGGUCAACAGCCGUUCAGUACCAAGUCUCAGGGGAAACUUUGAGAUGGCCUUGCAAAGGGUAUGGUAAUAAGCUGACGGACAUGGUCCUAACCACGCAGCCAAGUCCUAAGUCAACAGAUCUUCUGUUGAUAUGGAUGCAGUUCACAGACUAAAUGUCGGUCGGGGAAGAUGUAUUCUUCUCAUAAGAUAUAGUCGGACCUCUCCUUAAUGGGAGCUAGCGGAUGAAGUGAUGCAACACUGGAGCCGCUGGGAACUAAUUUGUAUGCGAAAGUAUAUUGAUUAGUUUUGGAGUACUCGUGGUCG
Run conditions: 30 °C

Macromolecule sequence | self-splicing fitness (ln)
AACGAGCAAUAUUACGGCGA | -1.95
AUCGAGCAAUAUUACGCUAU | -3.38
AAUCAGCAAUAUUACGUGAU | -0.823
UAGUAGCAAUAUUACGUCUC | -3.51
GUUCAGCAAUAUUACGCCCU | -0.106
CCCCAGCAAUAUUACGUACC | -4.07
GACUAGCAAUAUUACGUGUC | -2.59
AUGGAGCAAUAUUACGGCGG | -3.85
UCUCAGCAAUAUUACGCGCC | -3.46
GGGUAGCAAUAUUACGAUCC | -2.2
AGCCAGCAAUAUUACGAUUG | -4.59
AGAUAGCAAUAUUACGAGAG | -3.7
CUCAAGCAAUAUUACGUAAC | -4.43
ACCCAGCAAUAUUACGAAGG | -1.71
CUACAGCAAUAUUACGGUAG | -3.39
UCUCAGCAAUAUUACGGGCC | -2.05
AGUAAGCAAUAUUACGCAUG | -3.12
CGAGAGCAAUAUUACGGGAG | -2.83
AGACAGCAAUAUUACGAGCA | -1.46
UGUCAGCAAUAUUACGGUAG | -0.675
ACAGAGCAAUAUUACGAUCC | -3.76
UUUCAGCAAUAUUACGUCGU | -3.77
AAGGAGCAAUAUUACGGCCG | -1.99
GGACAGCAAUAUUACGGUAG | -1.7
ACGUAGCAAUAUUACGGUAU | -2.02
AGCUAGCAAUAUUACGAUUU | -0.0195
UCAGAGCAAUAUUACGAUAG | -4.05
UACAAGCAAUAUUACGUCUU | -3.55
CACAAGCAAUAUUACGGCUU | -3.67
GCGGAGCAAUAUUACGCGCG | -2.77
GUCCAGCAAUAUUACGGCAA | -0.33
GACGAGCAAUAUUACGGGGC | -2.83
ACAUAGCAAUAUUACGAGCA | -2.89
UUGAAGCAAUAUUACGGAAG | -1.12
CACCAGCAAUAUUACGAACC | -3.66
CACGAGCAAUAUUACGCUGG | -3.66
AAAAAGCAAUAUUACGCACU | 0.146
AUCGAGCAAUAUUACGGUUA | -3.3
AUGCAGCAAUAUUACGCCAC | -2.31
GCAAAGCAAUAUUACGAAAU | -2.4
GGAAAGCAAUAUUACGCGCU | -3.27
GCGCAGCAAUAUUACGCACC | -3.7
AUGAAGCAAUAUUACGUGUC | -2.97
UUUAAGCAAUAUUACGCAGU | -2.7
GUCUAGCAAUAUUACGAUCG | -3.06
GGGAAGCAAUAUUACGUAGG | -3.64
AACUAGCAAUAUUACGGGGG | -2.73
CGUCAGCAAUAUUACGGUUG | -0.45
GGCCAGCAAUAUUACGUUUU | -1.31
GUAUAGCAAUAUUACGUCCU | -1.56
UCCUAGCAAUAUUACGUGAA | -0.777
UCCUAGCAAUAUUACGACCA | -0.552

----------
// reported self-splicing fitness (ln) for each item listed
Test protocol: self-splicing fitness, log relative to wild type (ln ratio); higher = more splicing; Tetrahymena group I intron in knt gene, E. coli kanamycin selection, DiMSum; sequences stand for … in CUCUCU…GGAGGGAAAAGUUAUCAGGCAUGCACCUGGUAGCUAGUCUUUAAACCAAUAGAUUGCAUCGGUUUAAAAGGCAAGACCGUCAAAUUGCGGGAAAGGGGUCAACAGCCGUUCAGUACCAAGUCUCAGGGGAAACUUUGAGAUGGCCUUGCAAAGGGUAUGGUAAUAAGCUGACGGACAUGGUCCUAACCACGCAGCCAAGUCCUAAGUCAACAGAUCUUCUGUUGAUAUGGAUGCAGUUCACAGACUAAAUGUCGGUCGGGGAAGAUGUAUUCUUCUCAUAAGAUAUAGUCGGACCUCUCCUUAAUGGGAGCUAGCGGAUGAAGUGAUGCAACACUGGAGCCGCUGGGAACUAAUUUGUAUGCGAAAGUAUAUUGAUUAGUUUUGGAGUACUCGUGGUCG
Run conditions: 30 °C

Macromolecule sequence | self-splicing fitness (ln)
CACUAGCAAUAUUACGGUAU | -3.41
GCAUAGCAAUAUUACGUGGA | -3.06
AUUCAGCAAUAUUACGCGAG | -0.677
UUGAAGCAAUAUUACGCGAC | -2.19
CUCUAGCAAUAUUACGGCGG | -3.5
GUUGAGCAAUAUUACGGAUU | -2.6
CGAAAGCAAUAUUACGCACA | -0.831
CAGCAGCAAUAUUACGAGGC | -3.04
AGUUAGCAAUAUUACGACAA | -0.124
UUCAAGCAAUAUUACGGGCA | -0.666
CGAAAGCAAUAUUACGUUCC | -2.1
UGUGAGCAAUAUUACGCCCG | -0.83
AGCGAGCAAUAUUACGGGGG | -2.6
GGGUAGCAAUAUUACGGCAG | -3.66
GUGUAGCAAUAUUACGAGAU | -2.83
UCGUAGCAAUAUUACGCUUG | -2.53
ACCUAGCAAUAUUACGUGGC | -3.35
